TARGET: human CXCR4 receptor (Homo sapiens, UniProt P61073)
Construct: expressed in transfected cells
Sequence (P61073 whole entry): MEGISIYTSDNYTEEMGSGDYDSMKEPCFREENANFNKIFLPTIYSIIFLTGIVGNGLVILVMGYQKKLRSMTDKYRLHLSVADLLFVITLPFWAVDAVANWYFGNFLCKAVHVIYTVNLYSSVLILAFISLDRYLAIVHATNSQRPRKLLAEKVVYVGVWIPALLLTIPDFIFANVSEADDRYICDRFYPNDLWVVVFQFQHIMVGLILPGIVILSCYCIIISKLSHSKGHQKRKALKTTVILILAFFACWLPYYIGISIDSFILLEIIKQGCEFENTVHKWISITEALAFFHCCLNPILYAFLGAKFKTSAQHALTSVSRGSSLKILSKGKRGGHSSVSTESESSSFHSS
EXPERIMENTAL_PROTOCOL: Measurement of intracellular Ca+2 responses (FLIPR), antagonism of the SDF-1α response
Assay type: cell-based
STATED_CONDITIONS: percent antagonism of SDF-1α 1.9 nM (EC65) response; HEK-Gqi5 human CXCR4 cells; value in brackets
PARAMETER_MEASURED: CXCR4 (% Inh) (%)
Numbers only here, please. The scale is %.

Annotate the compound `COc1cc2nc(NCCN)nc(NC3CCN(Cc4c(OCCN(C)C)cccc4N(C)C)CC3)c2cc1OC` with its measured CXCR4 (% Inh).
94

Annotate the compound `COc1cccc(N(C)C)c1CN1CCC(Nc2nc(NCC3CNC3)nc3ccccc23)CC1` with its measured CXCR4 (% Inh).
98

Annotate the compound `COc1cc2nc(NCc3cn(C)cn3)nc(NC3CCN(Cc4c(OCCN(C)C)cccc4N(C)C)CC3)c2cc1OC` with its measured CXCR4 (% Inh).
99

Annotate the compound `COc1cccc(N(C)C)c1CN1CCC(Nc2nc(NC[C@H]3CCN(C(=O)OC(C)(C)C)C3)nc3ccccc23)CC1` with its measured CXCR4 (% Inh).
81
